Test: Waters ACQUITY UPLC BEH C18, 100 × 2.1 mm, 1.7 µm, 40 °C, 0.3 to 0.4 mL/min, estimated dead time 0.63 min; A: water + 0.1% formic acid; B: methanol + 0.1% formic acid; gradient (min/%B) 0/0.5 0.1/0.5 10/80 10.1/99.5 12/99.5
Settings: stereoisomer not certain
RECORDED METRIC: LC retention time (min)

Worked examples follow.
COMPOUND: CCCCCC=CCC=CCC=CCCCCC(=O)OCC(O)COP(=O)([O-])OCC[N+](C)(C)C (stereo unspecified)
ENDPOINT RESULT: 8.85
--
COMPOUND: O=C(C=Cc1ccc(O)c(O)c1)c1ccc(OC2OC(CO)C(O)C(O)C2O)c(O)c1O (stereo unspecified)
ENDPOINT RESULT: 4.1

P. COc1ccc2ccc(=O)oc2c1CC=C(C)C
Q. COc1cc(-c2cc(=O)c3c(O)cc(OC4OC(C(=O)O)C(O)C(O)C4OC4OC(C(=O)O)C(O)C(O)C4O)cc3o2)cc(OC)c1O (stereo unspecified)
[in] Min LC retention time? P | Q Could you answer with the label of the item you picked?
[out] Q
(Q: 3.96 min, P: 8.75 min)

I. COc1cc(C=CC(=O)NCCCCC(N)C(=O)O)ccc1O (stereo unspecified)
II. CSCC(NC(=O)CCC(N)C(=O)O)C(=O)O (stereo unspecified)
III. COc1cc2c(cc1OC)-c1cc3ccc(OC)c(OC)c3c[n+]1CC2
[in] Please give the order of these compounds when sorted by LC retention time, largest value leading. Record the ranking as a list of labels in the requested order.
[out] III, I, II
(III: 4.96 min, I: 3.08 min, II: 2.02 min)
